Tested on: SK-MEL-5
Assay: NCI tumour cell line growth inhibition, 48 h
The source made the active and inactive calls. Cut-off read from the data, not from the text of the source: active = GI50 up to about 1.1 µM and inactive = higher.
Reported values of GI50 for individual entries

Recorded GI50, per entry:
Cc1ccc(/N=N/C(=N/NC(=O)c2cc(Cl)ccc2C(=O)c2ccccc2)c2ccc(N(CCC#N)CCC#N)cc2C)cc1: 14 µM (inactive)
COc1ccc(OC)c(CCc2cc(OC)c(OC)cc2C)c1: 1.62 µM (inactive)
O=C(Cc1nc2ccc(C(=O)c3ccccc3)cc2nc1O)C(=O)Nc1ccccc1[N+](=O)[O-]: 46 µM (inactive)
CC(C)(C)OC(=O)C1C(=O)NC(=O)CC1C(COCc1ccccc1)OCc1ccccc1 (stereo not given): 17.3 µM (inactive)
O=C(O)c1ccccc1Sc1ccc(C=C2NC(=S)N(c3ccccc3)C2=O)s1: > 100 µM (inactive)
C/C1=C/C2=CC(C)C[C@@H]2C(=O)[C@]2(C)C(=O)CC(C)(C)[C@H]2CC1=O (stereo not given in full): > 50 µM (inactive)
CC[C@@H]1NC(C(=O)OC)Cc2c1[nH]c1ccccc21 (stereo not given in full): > 100 µM (inactive)
C=CC(Cl)(CBr)CCC(Br)C(C)(C)Cl (stereo not given): 13.1 µM (inactive)
COC(=O)c1nc(-c2nc(CCNC(=O)OC(C)(C)C)sc2Cl)sc1Cl: 31.8 µM (inactive)
O=C(NCc1ccccc1)C1C(=O)C(=O)N(Cc2ccccc2)C1=O (stereo not given): > 100 µM (inactive)

Sample CC(C)C1=C(Cc2ccccc2)C(=O)O/C1=C\c1cc(Cl)c(O)c(Cl)c1 — what was its GI50? 18.7 µM (inactive)

Any idea what GI50 was measured for Cc1c2c(C(N)=O)nccc2c(C)c2c1c1ccccc1n2Cc1ccccc1 ? 34.8 µM (inactive)

Look at this compound and give its reported GI50. Cc1cn([C@H]2C[C@@H](N3C(=O)c4ccccc4C3=O)[C@@H](CO[Si](C)(C)C(C)(C)C)O2)c(=O)[nH]c1=O > 100 µM (inactive)

Which value of GI50 has been reported for Cn1c(-c2cccs2)cc(-c2cccs2)c1-c1cccs1 in the records? 14.5 µM (inactive)

Given the entry CC(C)=CCC[C@]1(C)CC[C@]2(C)C3CCC(=C(C)C)[C@@H](CCCO)[C@]3(C)CC[C@@]2(C)C1 (stereo not given in full) , report its measured GI50. > 100 µM (inactive)

Give its GI50 value. Item: NS(=O)(=O)c1cc(S(N)(=O)=O)c(NC(=O)N(c2ccccc2)c2ccccc2)c(Cl)c1Cl 14.1 µM (inactive)

For the compound shown here, Cc1c(Cl)ccc2c1NC(=O)C2(O)CC(=O)c1ccc(Cl)cc1Cl (stereo not given) , give the reported GI50. > 50 µM (inactive)

# input compound: COCOC1/C=C/CCCCC(=O)C(C)C#CC1 (stereo not given) ; wanted: its GI50 8.87 µM (inactive)

Record request: GI50 value, item C=C(CO[Si](C)(C)C(C)(C)C)C(C)=O 14.6 µM (inactive)

Using the record for N#C/N=C1\NC(Cc2ccccc2)C(=O)N1CCc1c[nH]c2ccccc12 (stereo not given) , report its GI50. 17.8 µM (inactive)

Ref: ChEMBL document CHEMBL1201862
